Where do the numbers come from? From PubChem BioAssay AID1851.

- target_entity: Cytochrome P450 3A4 (Homo sapiens) (UniProt P08684)
- Sequence (P08684 whole entry, looked up): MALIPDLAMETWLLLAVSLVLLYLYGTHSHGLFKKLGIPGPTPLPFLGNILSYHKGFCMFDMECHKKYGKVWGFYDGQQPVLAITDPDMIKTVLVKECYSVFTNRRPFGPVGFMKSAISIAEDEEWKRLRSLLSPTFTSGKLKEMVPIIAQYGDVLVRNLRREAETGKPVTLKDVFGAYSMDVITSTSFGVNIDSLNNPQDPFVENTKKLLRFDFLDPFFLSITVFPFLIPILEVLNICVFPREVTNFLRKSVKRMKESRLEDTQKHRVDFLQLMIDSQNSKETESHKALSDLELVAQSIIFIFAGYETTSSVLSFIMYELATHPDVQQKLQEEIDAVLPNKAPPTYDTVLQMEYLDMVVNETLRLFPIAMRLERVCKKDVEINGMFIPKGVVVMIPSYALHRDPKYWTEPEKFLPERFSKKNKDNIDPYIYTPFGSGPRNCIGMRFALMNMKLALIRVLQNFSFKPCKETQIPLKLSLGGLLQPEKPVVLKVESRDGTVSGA
- assay_procedure: Cytochrome panel assay with activity outcomes
- test_conditions: recombinant CYP, pro-luciferin dealkylation, luminescence, p450-cyp3a4; series mostly up to 57.1 µM
The campaign covered roughly 16,000 compounds. About 5,100 (32%) were called active. Not shown: some 25% with an inconclusive outcome. Calls follow the shape of the dose curve; as a rule, active = well fitted curve in the direction sought with a large enough effect; inconclusive = small, poorly fitted or top-dose-only effect, or effect the other way; inactive = no such curve, though single readings can be large or run the other way. Some of the results follow.
Labels: active, inactive

• Nc1nc(SCCc2ccccc2)c2[nH]cnc2n1 = active
• CCNc1nc(Oc2c(Cl)cccc2Cl)cc(C(F)(F)F)n1 = inactive
• O=C(Nc1ccccc1)C(Cc1ccccc1)NC(=O)C12CC3CC(CC(C3)C1)C2 (centres undefined) = inactive
• CCOc1cc(/C=C2\N=C(C)OC2=O)cc(Br)c1OCC(=O)OC = active
• NNC(=O)CNC(c1ccccc1)c1cc(Br)ccc1NC(=O)c1ccccc1Br (centres undefined) = active
• C[N+](C)([O-])CCC=C1c2ccccc2CCc2ccccc21 = active
• CC(C)(Oc1ccc(CCNC(=O)c2ccc(Cl)cc2)cc1)C(=O)O = inactive
• CN(C)CC/C=C1\c2ccccc2COc2ccccc21 = inactive
• C[N+](C)(C)CCN(Cc1ccc(Cl)cc1)c1ccccn1 = inactive
• CC[N+](CC)(CC)CCOc1ccc(/C=C\c2ccccc2)cc1 = inactive
• Nc1nc(SC/C=C\c2ccccc2)c2[nH]cnc2n1 = active
• O=C(O)CCCCCNC(=O)c1ccccc1Br = inactive
• O=C1c2ccccc2C(=O)N1CC(=O)N1c2ccccc2CCc2ccccc21 = active
• Cc1cc(C)c(NC(=O)NC(=O)c2ccc(F)cc2)c(C)n1 = inactive
• CCOC(=O)COc1c(C=O)cc(Br)cc1OC = inactive
• Cc1ccc(NC(=O)c2sc3ccccc3c2Cl)nc1 = inactive
• Cc1cc(C)c(NC(=O)CSc2nnc(Cc3cccn3C)n2-c2ccc(F)cc2)c(C)c1 = active
• Nc1nc(SCc2ccccc2[N+](=O)[O-])c2[nH]cnc2n1 = active
• CN(C)CCC=C1c2ccccc2CCc2ccccc21 = inactive
• Cc1cc(C)n(-c2ccc(F)cc2)c(=O)c1C(=O)O = inactive
• COc1cc(NC(=O)C2CCN(S(=O)(=O)c3cccc4nonc34)CC2)cc(OC)c1 = active
• O=C1NC(=O)C(c2ccccc2[N+](=O)[O-])=C1Nc1ccc(O)c(Cl)c1 = active
• O=C(COc1ccc(Cl)cc1)N(Cc1ccccc1)c1ccccn1 = active
• CC(C)(Oc1ccc([C@@H]2CC2(Cl)Cl)cc1)C(=O)O = inactive

###

- target_entity: Cytochrome P450 3A4 (Homo sapiens)
- assay_procedure: Cytochrome panel assay with activity outcomes
- test_conditions: recombinant CYP, pro-luciferin dealkylation, luminescence, p450-cyp3a4; series mostly up to 57.1 µM
- Protocol: The P450 gene superfamily is involved in the metabolism and clearance of xenobiotics. This assay used various human CYP P450 isozymes to measure the dealkylation of various pro-luciferin substrates to luciferin. The luciferin is then measured by luminescence after the addition of a luciferase detection reagent. […] Inhibitors and some substrates limit the production of luciferin, and decrease measured luminescence. […] 8, Detection, 1 sec, ViewLux luminescent read […]
The whole screen tested about 16,000 compounds, of which about 5,100 (32%) were called active. About 25% were inconclusive and are not listed. Calls follow the shape of the dose curve; as a rule, active = well fitted curve in the direction sought with a large enough effect; inconclusive = small, poorly fitted or top-dose-only effect, or effect the other way; inactive = no such curve, though single readings can be large or run the other way. The list shows a part of the results.
Possible outcomes: active, inactive

* COc1c(/C=N/Nc2nc(N3CCCCC3)nc(N3CCCCC3)n2)cccc1[N+](=O)[O-] | active
* Cn1cccc1C(=O)N1CCC[C@@]2(CCN(Cc3cc(C(F)(F)F)cc(C(F)(F)F)c3)C2)C1 | active
* CN1C(C(=O)Nc2ccccn2)=C(O)c2sccc2S1(=O)=O | inactive
* Cc1cccc(-c2c3c(=O)n(C)c(=O)n(C)c3cn2C2CCCCC2)c1 | active
* COc1cccc(-c2ccc3ncnc(NCCNC(C)=O)c3c2)c1 | active
* CCCN(C(=S)Nc1ccccc1)C1CCS(=O)(=O)C1 (configuration not stated) | inactive
* Cn1cccc1C(=O)N1CCC2(CC1)CN(Cc1cc(C(F)(F)F)cc(C(F)(F)F)c1)C2 | inactive
* CC(C)c1cccc2cc3c(nc12)-c1cccc(=O)n1C3 | active
* Cc1ccc(CSc2nnc(C(F)(F)F)n2Cc2ccc(F)cc2)cc1 | active
* c1nc(NC2CCNCC2)c2cc(-c3ccoc3)ccc2n1 | inactive
* CC1CCCN(C/C=C/c2ccccc2[N+](=O)[O-])C1 (configuration not stated) | inactive
* COCCNc1ncnc2ccc(-c3cccc(OC)c3)cc12 | active
* CCc1c2c(nc3c(C(C)C)cccc13)-c1cccc(=O)n1C2 | active
* COc1cccc(CSc2nnc(C(F)(F)F)n2Cc2ccc(F)cc2)c1 | active
* CCCCCC1=C2CNC(Cc3ccccc3)(C(=O)OC)C=C2C(C)C1=O (configuration not stated) | active
* COc1ccc(S(=O)(=O)N/N=C(/C)c2cccc(NC(=O)c3ccccc3Cl)c2)cc1 | active
* CC(C)c1cccc2c([Si](C)(C)C)c3c(nc12)-c1cccc(=O)n1C3 | active
* C/C(=N/NS(=O)(=O)c1ccc(C)cc1)c1cccc(NC(=O)c2cccc(Cl)c2)c1 | active
* CN(C)CCO[C@@H](c1ccc(Cl)cc1)c1ccccn1 | inactive
* Cn1cccc1C(=O)N1CCC[C@@]2(CCN(Cc3ccc(C#N)cc3)C2)C1 | active
* CN(C(=O)COc1cccc(Br)c1)C1CCS(=O)(=O)C1 (configuration not stated) | inactive
* Fc1ccc(Cn2c(SCc3ccc(F)c(C(F)(F)F)c3)nnc2C(F)(F)F)cc1 | active
